system: A549; assay: Antiproliferative activity against human A549 cells after 48 hrs by MTT assay; assay type: functional, cell-based; conditions: A549, 48 h
Listed here are compounds together with their documented IC50.

# IC50 measured on A549 for item C=C(C(=O)O)[C@@H]1CC[C@]2(C)C(=C(C)C(=O)C[C@H]2O)C1 = > 100 µM

Short answer on A549 for C=C(C(=O)O)[C@@H]1CC[C@@]2(C)CCC(=O)C(C)=C2C1 , IC50: > 100 µM

Note to self: IC50 of C=C(C(=O)O)[C@@H]1CC[C@]2(C)C(=C(C)C(=O)[C@@H](O)[C@H]2O)C1 with A549 was 74 µM

Entry C=C(C(=O)O)[C@@H]1CC[C@@]2(C)C[C@H](O)C(=O)C(C)=C2C1 , tested on A549, has a reported IC50 of > 100 µM

Log: A549, compound C=C(C(=O)O)[C@@H]1CC[C@@]2(C)C=C(O)C(=O)C(C)=C2C1 , IC50 = > 100 µM

Per the reported A549 data, C=C(C(=O)O)[C@@H]1CC[C@@]2(C)C=CC(=O)C(C)=C2C1 has IC50 of > 100 µM
